Origin of measurements: PubChem BioAssay (NCI)

Each entry below lists one item and its recorded TGI value.
- System: SF-295 CNS
- method: NCI tumour cell line growth inhibition, 48 h
measured-property: TGI

compound: O=C(Nc1ccc(Cl)cc1Cl)C(=O)C(C(=O)c1ccc2ccccc2c1)C1OC(=O)c2ccccc21 (stereo unspecified)
measured-property: TGI
meas-value: 19.7 µM
--
compound: CC1(C)C(=O)C(C)(C)C1=NN
measured-property: TGI
meas-value: > 100 µM
--
compound: COc1ccccc1N=C(N)N/N=C/c1c[nH]c2ccccc12
measured-property: TGI
meas-value: 21.3 µM
--
compound: Clc1ccc(Cc2nc3ccccc3s2)c(Cl)c1
measured-property: TGI
meas-value: 31.8 µM
--
compound: O=c1[nH]c(=O)n([C@@H]2C[C@H](CO)[C@H](O)C2)cc1/C=C/Br
measured-property: TGI
meas-value: > 100 µM
--
compound: CN1CCN(c2c(Cl)cc(Cl)c3[nH]c4ccccc4c(=O)c23)CC1
measured-property: TGI
meas-value: 20.3 µM
--
compound: Cc1c(S(C)(=O)=O)c(-c2cc(F)cc(N3CCN(c4ccc(NS(=O)(=O)c5ccc(N[C@H](CCN6CCC(C(=O)OCCCP(=O)(O)O)CC6)CSc6ccccc6)c(S(=O)(=O)C(F)(F)F)c5)cc4)CC3)c2)c(-c2ccc(Cl)cc2)n1C(C)C
measured-property: TGI
meas-value: > 100 µM
--
compound: CC1CC#CCOC(=O)CCCC1=O (stereo unspecified)
measured-property: TGI
meas-value: > 100 µM
--
compound: CC(=O)OCC1OC(n2c3c(c(-c4cccc5ccccc45)c(C#N)c2=S)CCCC3)C(OC(C)=O)C(OC(C)=O)C1OC(C)=O (stereo unspecified)
measured-property: TGI
meas-value: > 100 µM
--
compound: O=C1CCC2(CCO1)OCCO2
measured-property: TGI
meas-value: > 100 µM
--
compound: Cc1ccc(/C(=N\N=C(N)N)c2ccccc2)cc1
measured-property: TGI
meas-value: 3.15 µM
--
compound: O=[N+]([O-])c1c(Br)cc(Br)c2c1Nc1c(ccc(Cl)c1Cl)S2
measured-property: TGI
meas-value: 39.1 µM
--
compound: Cc1ccc(C2=NOC(=O)[C@@H]3CCCC[C@@H]23)cc1
measured-property: TGI
meas-value: > 100 µM
--
compound: CC(C)CNCC(O)COc1ccc(C(C)(C)c2ccc(OCC(O)CNCC(C)C)cc2)cc1 (stereo unspecified)
measured-property: TGI
meas-value: 6.68 µM
--
compound: CC(C)=CCC/C(C)=C/CC/C(C)=C/Cc1c(O)c2ccccc2oc1=O
measured-property: TGI
meas-value: > 100 µM
--
compound: N/N=C1/C2CN3CCN(C2)CC1(c1ccc([N+](=O)[O-])cc1)C3
measured-property: TGI
meas-value: > 100 µM
--
compound: O=CC(O)C(O)C(O)C(O)C(=O)NCCCCCCCCCCCCNC(=O)C(O)C(O)C(O)C(O)C=O (stereo unspecified)
measured-property: TGI
meas-value: > 100 µM
--
compound: CC12N=NN(c3ccc([N+](=O)[O-])cc3)C1(O)c1ccccc1C2=O (stereo unspecified)
measured-property: TGI
meas-value: > 100 µM
--
compound: O=C1NC(=O)/C(=C/c2ccc(S(=O)(=O)N/N=C/c3ccc(Cl)cc3)cc2)N1
measured-property: TGI
meas-value: > 100 µM
--
compound: CCOC(=O)c1c(N2CCCC2)ncn(-c2ccccc2)c1=S
measured-property: TGI
meas-value: > 100 µM
--
compound: C1C[OH+]CC[OH+]CCNCC[OH+]CC[OH+]CCN1.[Cl-].[Pt+4]
measured-property: TGI
meas-value: > 100 µM
--
compound: O=C(Nc1cccs1)c1c(O)[nH]c(=S)[nH]c1=O
measured-property: TGI
meas-value: > 100 µM
--
compound: CC(=O)N[C@@H]1C(O)CN2C(=O)C(=O)O[C@H](C(O)CO)[C@@H]12 (stereo partly specified)
measured-property: TGI
meas-value: > 100 µM
--
compound: CCn1c(C(=O)N(C2CC2)C2CC2)cc2c3c(ncn3C)c(Nc3cc(C)n(C)n3)nc21
measured-property: TGI
meas-value: > 100 µM
--
compound: CCOC(=O)C(NC(=O)N(C1=NCC(C)S1)C1CCCCC1)(OC)C(F)(F)F (stereo unspecified)
measured-property: TGI
meas-value: > 100 µM
--
compound: N#Cc1nc(CCCCCN2C(=O)c3ccccc3C2=O)oc1N
measured-property: TGI
meas-value: > 100 µM
--
compound: COc1ccccc1/C=C1\CCC(CCN(C)C)(C2=CCCC2)C1=O (stereo unspecified)
measured-property: TGI
meas-value: 31.7 µM
--
compound: CCOC(=O)C1=C(C(=O)c2ccc(C)cc2)C(c2cccc([N+](=O)[O-])c2)C(C(=O)c2ccc(C)cc2)=C(C(=O)OCC)N1
measured-property: TGI
meas-value: 32.1 µM
--
compound: CN(C)/N=C/c1cn(C)c(=O)n(C)c1=O
measured-property: TGI
meas-value: > 100 µM
--
compound: C[C@@H](O)C(=O)N1[C@@H]2CC3CC[C@]2(CS1(=O)=O)C3(C)C
measured-property: TGI
meas-value: > 100 µM
--
compound: Oc1cc(O)c(Oc2cccc(O)c2O)c(O)c1
measured-property: TGI
meas-value: > 100 µM
--
compound: Cc1ccc(C(C)(C)C[P+](C)(c2ccccc2)c2ccccc2)cc1
measured-property: TGI
meas-value: > 85.2 µM
--
compound: CCCCS(=O)CCC(N)C(=O)O (stereo unspecified)
measured-property: TGI
meas-value: > 100 µM
--
compound: CCCCCCCNc1nc(C(=O)OCC)ncc1-c1ccc(C(F)(F)F)cc1
measured-property: TGI
meas-value: > 100 µM
--
compound: NCCCOCC(=O)O
measured-property: TGI
meas-value: > 100 µM
--
compound: O=C(c1ccc(Cl)cc1)c1ccc(OCCCCCCCCCCOc2ccc(C(=O)c3ccc(Cl)cc3)cc2)cc1
measured-property: TGI
meas-value: > 100 µM
--
compound: c1ccc(CCNCc2ccco2)nc1
measured-property: TGI
meas-value: > 100 µM
--
compound: O=C1c2ccc([N+](=O)[O-])cc2-c2c1c1ccccc1c(=O)n2CCCNCCCNCCCn1c2c(c3ccc([N+](=O)[O-])cc3c1=O)C(=O)c1ccccc1-2
measured-property: TGI
meas-value: 20.7 µM
--
compound: Oc1ccc(C(c2ccc(O)cc2)c2ccc(Cl)cn2)cc1
measured-property: TGI
meas-value: 7.21 µM
--
compound: O=C1C=C(NCCNC(=S)Nc2ccccc2)c2nccc3c2c1nc1ccccc13
measured-property: TGI
meas-value: > 100 µM
--
compound: C[C@H](NC(=O)[C@@H]1CSSC[C@@H](NC(=O)c2nc3ccccc3cc2O)C(=O)NCC(=O)N1C)c1ccccc1
measured-property: TGI
meas-value: 16.3 µM
